target: Nav 1.7 (Homo sapiens (Human)); assay: in-vitro Nav 1.7 PX (IC50); format: cell-based; details: in-vitro Nav 1.7 PX data
In this section, each of the molecules is paired with its reported IC50.
Measured Metric: IC50

1) COc1ccc(-c2cc(OC)c(-n3c(=O)ccc4cc(S(=O)(=O)Nc5ccon5)ccc43)cc2F)cn1 : 0.598 µM
2) COc1cc(-c2ccc(Cl)cc2)c(F)cc1-n1c(=O)ccc2cc(S(=O)(=O)Nc3ccnc(C)n3)ccc21 : 0.067 µM
3) COc1ccc(-c2ccc(F)cc2)cc1-n1c(=O)ccc2cc(S(=O)(=O)Nc3ccon3)ccc21 : 0.215 µM
4) COc1ccc(-c2ccc(Cl)cc2)cc1-n1c(=O)ccc2cc(S(=O)(=O)Nc3ccon3)ccc21 [Example 845] : 0.057 µM
5) COc1cc(-c2ccc(Cl)cc2)c(F)cc1-n1c(=O)ccc2cc(S(=O)(=O)Nc3ccon3)ccc21 (atropisomer, axis not shown; (P)) [Example 633] : 0.007 µM
6) COc1cc(-c2ccc(Cl)cc2)c(F)cc1-n1c(=O)ccc2cc(S(=O)(=O)Nc3ncco3)ccc21 : 0.037 µM
7) COc1ccccc1-c1cc(OC)c(-n2c(=O)ccc3cc(S(=O)(=O)Nc4ccon4)ccc32)cc1F : 0.099 µM
8) COc1ccc(F)c(-c2cc(OC)c(-n3c(=O)ccc4cc(S(=O)(=O)Nc5ccon5)ccc43)cc2F)c1 : 0.056 µM
9) COc1ccc(Br)cc1-n1c(=O)ccc2cc(S(=O)(=O)Nc3ccon3)ccc21 : 0.371 µM
10) COc1cc([C@@H]2CCOC(C)(C)C2)c(F)cc1-n1c(=O)ccc2cc(S(=O)(=O)Nc3ccon3)ccc21 : 1.12 µM
11) COc1cccc(-c2nc(OC)c(-n3c(=O)ccc4cc(S(=O)(=O)Nc5ccon5)ccc43)cc2Cl)c1 [Example 1093] : 4.95 µM
12) COc1cc(-c2ccc(Cl)cc2)ccc1-n1c(=O)ccc2cc(S(=O)(=O)Nc3ncco3)ccc21 : 0.037 µM
13) COc1cc(Cl)cc(-c2ccc(-n3c(=O)ccc4cc(S(=O)(=O)Nc5ncco5)ccc43)c(OC)c2)c1 : 0.022 µM
14) COc1cc(C#CC2CCCC2)c(F)cc1-n1c(=O)ccc2cc(S(=O)(=O)Nc3ncccn3)ccc21 : 0.026 µM
15) COc1cc(Cl)cc(-c2ccc(-n3c(=O)ccc4cc(S(=O)(=O)Nc5cccnn5)ccc43)c(OC)c2)c1 : 0.008 µM

* * *

biological target: Nav 1.5 (Homo sapiens (Human)); experiment: in-vitro Nav 1.5 PX (IC50); conditions: read-out: Nav 1.5 PX IC50
Sequence (Q14524 whole entry): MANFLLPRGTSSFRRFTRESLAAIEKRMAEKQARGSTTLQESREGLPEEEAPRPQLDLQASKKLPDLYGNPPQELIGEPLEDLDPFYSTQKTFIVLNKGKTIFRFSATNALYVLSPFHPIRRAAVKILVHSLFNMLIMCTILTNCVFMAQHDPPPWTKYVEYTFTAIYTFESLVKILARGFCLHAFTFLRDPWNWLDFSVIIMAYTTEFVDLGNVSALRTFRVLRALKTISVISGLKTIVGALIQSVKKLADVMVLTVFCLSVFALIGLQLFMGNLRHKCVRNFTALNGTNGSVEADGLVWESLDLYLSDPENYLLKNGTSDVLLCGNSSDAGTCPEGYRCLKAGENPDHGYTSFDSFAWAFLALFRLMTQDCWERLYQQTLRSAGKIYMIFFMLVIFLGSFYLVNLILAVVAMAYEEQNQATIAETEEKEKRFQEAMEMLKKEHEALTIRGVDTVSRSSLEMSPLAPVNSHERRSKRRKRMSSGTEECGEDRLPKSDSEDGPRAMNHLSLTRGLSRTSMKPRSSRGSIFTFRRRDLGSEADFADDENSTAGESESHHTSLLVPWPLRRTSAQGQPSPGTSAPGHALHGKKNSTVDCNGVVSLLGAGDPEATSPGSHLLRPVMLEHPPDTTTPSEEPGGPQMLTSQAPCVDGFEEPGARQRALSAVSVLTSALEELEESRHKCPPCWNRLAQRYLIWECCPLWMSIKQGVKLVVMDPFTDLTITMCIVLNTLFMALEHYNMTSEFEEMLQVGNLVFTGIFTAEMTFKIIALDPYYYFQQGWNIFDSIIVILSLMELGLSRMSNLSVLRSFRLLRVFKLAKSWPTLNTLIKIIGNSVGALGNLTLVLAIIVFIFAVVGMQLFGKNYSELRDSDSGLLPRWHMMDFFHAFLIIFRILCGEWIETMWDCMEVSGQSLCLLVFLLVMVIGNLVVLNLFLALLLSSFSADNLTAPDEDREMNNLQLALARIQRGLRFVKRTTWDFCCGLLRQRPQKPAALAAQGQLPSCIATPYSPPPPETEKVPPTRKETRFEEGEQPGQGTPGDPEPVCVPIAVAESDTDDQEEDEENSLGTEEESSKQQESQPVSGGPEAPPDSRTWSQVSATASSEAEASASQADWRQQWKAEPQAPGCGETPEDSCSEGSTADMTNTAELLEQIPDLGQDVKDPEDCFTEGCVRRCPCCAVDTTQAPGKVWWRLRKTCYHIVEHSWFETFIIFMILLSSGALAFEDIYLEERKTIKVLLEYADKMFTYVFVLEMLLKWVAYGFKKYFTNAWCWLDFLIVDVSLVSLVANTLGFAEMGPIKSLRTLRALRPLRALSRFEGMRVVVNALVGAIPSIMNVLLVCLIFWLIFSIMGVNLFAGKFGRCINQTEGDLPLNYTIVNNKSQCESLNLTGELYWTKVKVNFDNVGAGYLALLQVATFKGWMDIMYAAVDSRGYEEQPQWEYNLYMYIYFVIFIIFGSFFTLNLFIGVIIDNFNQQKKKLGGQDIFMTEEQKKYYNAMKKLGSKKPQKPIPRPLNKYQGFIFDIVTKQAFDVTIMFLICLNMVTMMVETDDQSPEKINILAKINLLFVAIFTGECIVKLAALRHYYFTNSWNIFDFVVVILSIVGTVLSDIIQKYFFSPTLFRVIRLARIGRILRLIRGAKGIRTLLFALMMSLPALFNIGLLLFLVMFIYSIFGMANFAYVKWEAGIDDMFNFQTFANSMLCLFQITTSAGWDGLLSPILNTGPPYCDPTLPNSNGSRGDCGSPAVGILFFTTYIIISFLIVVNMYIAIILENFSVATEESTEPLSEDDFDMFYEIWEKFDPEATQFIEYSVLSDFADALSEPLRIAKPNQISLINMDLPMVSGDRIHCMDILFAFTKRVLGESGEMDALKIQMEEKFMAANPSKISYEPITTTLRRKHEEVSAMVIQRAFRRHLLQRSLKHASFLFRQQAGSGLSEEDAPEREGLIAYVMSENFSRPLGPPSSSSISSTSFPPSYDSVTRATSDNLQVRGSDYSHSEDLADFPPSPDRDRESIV
pIC50: −log10 of the molar value.
In this section, each of the compounds is paired with its reported pIC50.
Measured Metric: pIC50

1. COc1cc(-c2cc(F)cc(Cl)c2)c(F)cc1-n1c(=O)ccc2cc(S(=O)(=O)Nc3ccon3)ccc21 (atropisomer, axis not shown; (P)) [Example 477] : < 4.52
2. COc1cc(-c2cccc(F)c2)c(Cl)cc1-n1c(=O)ccc2cc(S(=O)(=O)Nc3cccnn3)ccc21 (atropisomer, axis not shown; (P)) [Example 467] : < 4.52
3. COc1cc(-c2cccc(F)c2)c(Cl)cc1-n1c(=O)ccc2cc(S(=O)(=O)Nc3ccncn3)ccc21 (atropisomer, axis not shown; (P)) [Example 465] : < 4.52

* * *

target: UniProt Q15858; assay: in-vitro Nav 1.7 PX (IC50); format: cell-based; settings: in-vitro Nav 1.7 PX data (PatchXpress)
Field: label. Allowed values: class 1 (IC50 < 60 nM) or class 0 (IC50 >= 60 nM).

1. COc1cc(-c2ccc(-n3c(=O)ccc4cc(S(=O)(=O)Nc5cccnn5)ccc43)c(OC)c2)ccc1Cl : class 1
2. COc1cc(-c2cc(Cl)ccc2C)ccc1-n1c(=O)ccc2cc(S(=O)(=O)Nc3ncco3)ccc21 : class 1
3. N#CCOc1cc(Br)c(F)cc1-n1c(=O)ccc2cc(S(=O)(=O)Nc3ccon3)ccc21 : class 0
4. COc1cc(-c2cccc(C)c2Cl)ccc1-n1c(=O)ccc2cc(S(=O)(=O)Nc3ccon3)ccc21 : class 1
5. COc1cc(-c2cc(C)ccc2C)ccc1-n1c(=O)ccc2cc(S(=O)(=O)Nc3ccon3)ccc21 : class 1
6. CC(C#N)Oc1cc(Br)c(F)cc1-n1c(=O)ccc2cc(S(=O)(=O)Nc3ccon3)ccc21 (stereo not shown) : class 0

* * *

biological target: Nav 1.7 (Homo sapiens (Human), UniProt Q15858); assay: in-vitro Nav 1.7 PX (IC50); type: cell-based
Sequence (Q15858 whole entry): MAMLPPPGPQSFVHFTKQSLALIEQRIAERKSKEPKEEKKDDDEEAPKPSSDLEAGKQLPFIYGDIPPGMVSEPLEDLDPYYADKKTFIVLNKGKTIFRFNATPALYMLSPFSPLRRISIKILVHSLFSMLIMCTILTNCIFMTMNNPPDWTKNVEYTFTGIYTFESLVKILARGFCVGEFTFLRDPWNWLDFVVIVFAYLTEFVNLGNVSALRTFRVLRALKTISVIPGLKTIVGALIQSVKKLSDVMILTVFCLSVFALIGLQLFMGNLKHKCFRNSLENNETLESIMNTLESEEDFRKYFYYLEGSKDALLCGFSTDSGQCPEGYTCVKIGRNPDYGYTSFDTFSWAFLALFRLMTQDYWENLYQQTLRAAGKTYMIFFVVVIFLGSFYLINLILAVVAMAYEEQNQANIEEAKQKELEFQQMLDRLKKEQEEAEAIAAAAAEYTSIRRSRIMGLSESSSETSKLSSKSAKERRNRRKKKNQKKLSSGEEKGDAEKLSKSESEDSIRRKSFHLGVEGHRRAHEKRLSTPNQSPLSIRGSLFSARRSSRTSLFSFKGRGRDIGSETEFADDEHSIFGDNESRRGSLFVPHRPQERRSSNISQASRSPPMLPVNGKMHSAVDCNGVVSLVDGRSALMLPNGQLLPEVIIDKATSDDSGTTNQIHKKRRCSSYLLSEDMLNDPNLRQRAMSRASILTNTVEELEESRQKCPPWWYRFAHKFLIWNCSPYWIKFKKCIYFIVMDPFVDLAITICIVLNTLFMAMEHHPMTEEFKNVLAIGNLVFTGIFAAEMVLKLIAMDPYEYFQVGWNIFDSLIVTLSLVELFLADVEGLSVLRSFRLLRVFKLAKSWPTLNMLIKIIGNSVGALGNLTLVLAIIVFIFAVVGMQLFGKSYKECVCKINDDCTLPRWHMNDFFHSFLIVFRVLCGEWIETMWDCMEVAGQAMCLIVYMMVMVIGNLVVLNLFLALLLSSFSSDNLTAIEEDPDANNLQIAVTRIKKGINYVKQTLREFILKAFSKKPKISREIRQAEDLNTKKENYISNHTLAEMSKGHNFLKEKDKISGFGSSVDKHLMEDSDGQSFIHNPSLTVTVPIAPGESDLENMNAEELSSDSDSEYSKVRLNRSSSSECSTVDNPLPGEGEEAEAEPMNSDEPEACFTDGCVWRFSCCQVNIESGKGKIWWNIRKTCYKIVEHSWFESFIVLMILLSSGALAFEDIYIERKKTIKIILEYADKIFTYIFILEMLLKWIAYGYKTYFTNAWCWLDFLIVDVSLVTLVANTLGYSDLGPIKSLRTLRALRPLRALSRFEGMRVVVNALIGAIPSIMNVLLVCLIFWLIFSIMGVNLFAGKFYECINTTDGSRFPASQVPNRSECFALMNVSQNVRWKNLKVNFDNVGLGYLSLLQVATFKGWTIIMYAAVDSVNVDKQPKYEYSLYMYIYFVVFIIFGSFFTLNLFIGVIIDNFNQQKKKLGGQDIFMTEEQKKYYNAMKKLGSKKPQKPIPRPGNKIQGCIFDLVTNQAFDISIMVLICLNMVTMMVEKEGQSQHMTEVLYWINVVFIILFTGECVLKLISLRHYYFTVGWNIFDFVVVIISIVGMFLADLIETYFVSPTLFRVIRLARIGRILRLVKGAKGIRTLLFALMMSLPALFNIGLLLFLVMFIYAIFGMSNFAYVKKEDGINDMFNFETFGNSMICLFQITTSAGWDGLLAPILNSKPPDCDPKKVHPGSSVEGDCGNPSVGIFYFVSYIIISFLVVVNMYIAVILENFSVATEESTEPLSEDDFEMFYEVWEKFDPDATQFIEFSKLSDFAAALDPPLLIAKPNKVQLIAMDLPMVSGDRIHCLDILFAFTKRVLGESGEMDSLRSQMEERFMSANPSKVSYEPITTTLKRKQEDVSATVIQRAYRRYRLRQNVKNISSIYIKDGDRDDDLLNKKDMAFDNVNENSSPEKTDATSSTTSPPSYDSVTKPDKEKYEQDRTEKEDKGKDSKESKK
pIC50: −log10 of the molar value.
Quick rule for you: pIC50 at 7 or higher means T, lower means F.

1) COc1nc(OCc2cc(F)c(F)c(F)c2)c(Cl)cc1-n1c(=O)ccc2cc(S(=O)(=O)Nc3ccon3)ccc21 : T
2) COc1ccc(-c2cncc(C(F)(F)F)c2)cc1-n1c(=O)ccc2cc(S(=O)(=O)Nc3ccon3)ccc21 : F
3) COc1cc(-c2cccc(Cl)c2)ccc1-n1c(=O)ccc2cc(S(=O)(=O)Nc3ccon3)ccc21 [Example 351] : F
4) COc1nc(OCc2ccc(F)c(C(F)(F)F)c2)c(Cl)cc1-n1c(=O)ccc2cc(S(=O)(=O)Nc3ccon3)ccc21 : T
5) COc1cc(-c2cccc(Cl)c2)ccc1-n1c(=O)ccc2cc(S(=O)(=O)Nc3ccon3)ccc21 [Example 350] : T
6) COc1ccc(-c2cccc(C(F)(F)F)c2)cc1-n1c(=O)ccc2cc(S(=O)(=O)Nc3ccon3)ccc21 (atropisomer, axis not shown; (P)) [Example 381] : T
7) COc1cc(Br)c(C)cc1-n1c(=O)ccc2cc(S(=O)(=O)Nc3ccon3)ccc21 (atropisomer, axis not shown; (P)) : F
8) O=c1ccc2cc(S(=O)(=O)Nc3ccon3)ccc2n1[C@@H]1CC[C@@H](c2cccc(F)c2)C1 : F
9) COc1cc(-c2cc(F)cc(Cl)c2)ccc1-n1c(=O)ccc2cc(S(=O)(=O)Nc3ccon3)ccc21 (atropisomer, axis not shown; (M)) [Example 429] : F
10) COc1ccc(-c2ccnn2C)cc1-n1c(=O)ccc2cc(S(=O)(=O)Nc3ccon3)ccc21 : F
11) COc1nc(NCC2(C)CCCC2)c(Cl)cc1-n1c(=O)ccc2cc(S(=O)(=O)Nc3ccon3)ccc21 : F
12) COc1ccc(CC#N)cc1-n1c(=O)ccc2cc(S(=O)(=O)Nc3ccon3)ccc21 : F
13) CCOc1cc(-c2cccc(F)c2)c(F)cc1-n1c(=O)ccc2cc(S(=O)(=O)Nc3ccon3)ccc21 (atropisomer, axis not shown; (P)) [Example 388] : T
14) COc1cc(-c2cccc(Cl)c2)c(Cl)cc1-n1c(=O)ccc2cc(S(=O)(=O)Nc3ccon3)ccc21 (atropisomer, axis not shown; (P)) [Example 459] : T
15) COc1cc(-c2cccc(F)c2)c(Cl)cc1-n1c(=O)ccc2cc(S(=O)(=O)Nc3ccncn3)ccc21 (atropisomer, axis not shown; (M)) : F
16) COc1cc(C[C@H]2CCOC2)c(F)cc1-n1c(=O)ccc2cc(S(=O)(=O)Nc3ccon3)ccc21 (atropisomer, axis not shown; (P)) : F
17) COc1nc(-c2ccc(F)cc2)c(Cl)cc1-n1c(=O)ccc2cc(S(=O)(=O)Nc3ccon3)ccc21 (atropisomer, axis not shown; (P)) : F
18) COc1cc(Br)c(Cl)cc1-n1c(=O)ccc2cc(S(=O)(=O)Nc3ccon3)ccc21 (atropisomer, axis not shown; (P)) : F
19) COc1cc(-c2cccc(OC(C)C)c2)ccc1-n1c(=O)ccc2cc(S(=O)(=O)Nc3cc(C)ncn3)ccc21 (atropisomer, axis not shown; (P)) : F

* * *

In this section, each of the compounds is paired with its reported IC50.
target: Nav 1.7 (Homo sapiens (Human)); assay: in-vitro Nav 1.7 PX (IC50); assay type: cell-based; settings: in-vitro Nav 1.7 PX data
Measured Metric: IC50 (nM)

1) COc1cc(-c2ccc(F)cc2)c(F)cc1-n1c(=O)ccc2cc(S(=O)(=O)Nc3ncc(F)cn3)ccc21 : 100
2) COc1cc(-c2cccc(C)c2)c(F)cc1-n1c(=O)ccc2cc(S(=O)(=O)Nc3ncc(F)cn3)ccc21 : 20
3) COc1cc(Cl)c(-c2cccc(F)c2)cc1-n1c(=O)ccc2cc(S(=O)(=O)Nc3ccon3)ccc21 (atropisomer, axis not shown; (P)) [Example 608] : 12

* * *

biological target: Nav 1.7 (Homo sapiens (Human)); experiment: in-vitro Nav 1.7 PX (IC50); assay type: cell-based; details: in-vitro PatchXpress (PX)
In this section, each of the molecules is paired with its reported IC50.
Measured Metric: IC50 (nM)

1. COc1cc(-c2ccncc2)c(F)cc1-n1c(=O)ccc2cc(S(=O)(=O)Nc3ccon3)ccc21 [Example 505] : 1800
2. COc1cc(Cl)cc(-c2cc(OC)c(-n3c(=O)ccc4cc(S(=O)(=O)Nc5ccon5)ccc43)cc2F)c1 (atropisomer, axis not shown; (M)) [Example 502] : 1230
3. COc1cc(-c2ccc(Cl)c(C#N)c2)c(F)cc1-n1c(=O)ccc2cc(S(=O)(=O)Nc3ccon3)ccc21 (atropisomer, axis not shown; (P)) [Example 508] : 7
4. COc1cc(N2CC(C(F)(F)F)C2)c(F)cc1-n1c(=O)ccc2cc(S(=O)(=O)Nc3ccon3)ccc21 [Example 530] : 495
5. COc1nc(-c2cc(F)cc(Cl)c2)c(Cl)cc1-n1c(=O)ccc2cc(S(=O)(=O)Nc3ccon3)ccc21 [Example 449] : 85
6. COc1cc(-c2ccc(C)c(Cl)c2)c(F)cc1-n1c(=O)ccc2cc(S(=O)(=O)Nc3ccon3)ccc21 (atropisomer, axis not shown; (P)) [Example 528] : 7
7. COc1nc(-c2cc(F)cc(F)c2)c(Cl)cc1-n1c(=O)ccc2cc(S(=O)(=O)Nc3ccon3)ccc21 [Example 447] : 59
8. COc1cc(-c2ccc(F)c(Cl)c2)c(F)cc1-n1c(=O)ccc2cc(S(=O)(=O)Nc3ccon3)ccc21 (atropisomer, axis not shown; (P)) [Example 365] : 9
9. COc1cc(-c2ccc(Cl)c(C)c2)ccc1-n1c(=O)ccc2cc(S(=O)(=O)Nc3cccnn3)ccc21 (atropisomer, axis not shown; (P)) [Example 371] : 4360
10. COc1cc(-c2ccc(C)c(F)c2)c(F)cc1-n1c(=O)ccc2cc(S(=O)(=O)Nc3ccon3)ccc21 (atropisomer, axis not shown; (M)) [Example 511] : 8620
11. COc1cc(-c2cccc(C#N)c2)c(F)cc1-n1c(=O)ccc2cc(S(=O)(=O)Nc3ccon3)ccc21 (atropisomer, axis not shown; (P)) [Example 498] : 34
12. COc1cc(-c2cc(F)cc(F)c2F)c(F)cc1-n1c(=O)ccc2cc(S(=O)(=O)Nc3ccon3)ccc21 (atropisomer, axis not shown; (M)) [Example 515] : 5160
